Biological target: T1, human chemokine (C-C motif) receptor 8 (CCR8) (human, UniProt P51685 1-355)
T1 construct: On human peripheral blood lymphocytes / PBMC (native) or on human CCR8 GFP-transfected Ba/F3 cells; also called hCCR8; human CCR8
T1 sequence (P51685 whole entry): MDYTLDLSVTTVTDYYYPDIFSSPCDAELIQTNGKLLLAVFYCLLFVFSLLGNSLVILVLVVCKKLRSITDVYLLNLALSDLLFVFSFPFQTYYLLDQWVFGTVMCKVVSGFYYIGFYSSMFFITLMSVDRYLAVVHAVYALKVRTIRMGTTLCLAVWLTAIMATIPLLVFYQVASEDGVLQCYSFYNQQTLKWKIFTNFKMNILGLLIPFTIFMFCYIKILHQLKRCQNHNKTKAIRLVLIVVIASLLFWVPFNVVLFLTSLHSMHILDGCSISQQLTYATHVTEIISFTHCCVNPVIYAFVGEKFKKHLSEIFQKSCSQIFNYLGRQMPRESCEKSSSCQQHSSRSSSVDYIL
Assay: flow cytometry blocking, PBMC CCR8+ CD4+ cells; competitor PE-ABII (its MFI is read)
Procedure: For blocking studies, 100 μL of the cell suspension were incubated with 10 μg purified isotype control, AB1, AB2, AB3, AB4, AB5, AB8, AB9, AB10, AB11, AB12, AB13, AB14, AB15, and Commercial ABI antibodies, or isotype control, as blocking agents. […]
Measured % Blocking values are reported for all entries that follow.
// return the numeric value with its unit appended

Entry AB3 (antibody, V domains shown, Hybridoma monoclonal; also called antibody 3; clone 3) VH: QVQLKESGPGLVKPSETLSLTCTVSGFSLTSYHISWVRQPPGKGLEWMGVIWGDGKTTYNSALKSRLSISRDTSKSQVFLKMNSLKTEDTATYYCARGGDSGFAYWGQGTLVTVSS VL: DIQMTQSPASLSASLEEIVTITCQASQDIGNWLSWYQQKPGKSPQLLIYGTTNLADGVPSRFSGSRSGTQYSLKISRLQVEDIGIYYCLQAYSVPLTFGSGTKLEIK : reported % Blocking = ?
3.05%

# get_value(readout='% Blocking', item= AB8 (antibody, V domains shown, Hybridoma monoclonal; also called antibody 8; clone 8) VH: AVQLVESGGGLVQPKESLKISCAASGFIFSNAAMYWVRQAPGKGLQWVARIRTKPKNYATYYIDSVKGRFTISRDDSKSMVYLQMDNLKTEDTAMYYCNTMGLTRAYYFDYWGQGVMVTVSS VL: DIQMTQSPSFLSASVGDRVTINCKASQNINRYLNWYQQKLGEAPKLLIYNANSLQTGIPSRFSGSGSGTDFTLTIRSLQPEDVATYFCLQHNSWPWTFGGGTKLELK )
27%

Recorded % Blocking for AB15 (antibody, V domains shown, Hybridoma monoclonal; also called antibody 15; clone 15) VH: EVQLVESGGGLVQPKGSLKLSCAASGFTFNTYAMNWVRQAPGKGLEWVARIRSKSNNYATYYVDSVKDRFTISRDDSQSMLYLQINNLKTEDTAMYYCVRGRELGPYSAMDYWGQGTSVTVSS VL: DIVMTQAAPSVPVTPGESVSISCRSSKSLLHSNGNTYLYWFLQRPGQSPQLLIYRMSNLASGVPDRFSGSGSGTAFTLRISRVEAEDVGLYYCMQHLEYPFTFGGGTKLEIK , please?
-0.05%

# get_value(readout='% Blocking', item= AB12 (antibody, V domains shown, Hybridoma monoclonal; also called antibody 12; clone 12) VH: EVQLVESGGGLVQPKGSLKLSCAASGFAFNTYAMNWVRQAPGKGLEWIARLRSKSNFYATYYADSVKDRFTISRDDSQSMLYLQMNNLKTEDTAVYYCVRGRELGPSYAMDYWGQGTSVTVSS VL: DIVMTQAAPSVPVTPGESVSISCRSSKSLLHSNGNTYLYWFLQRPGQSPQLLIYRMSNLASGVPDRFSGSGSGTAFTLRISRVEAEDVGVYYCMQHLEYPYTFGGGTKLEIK )
22.9%
